Just for reference, patent US11547697B2 is where these values come from.

measured on: p110γ (Homo sapiens (Human))
Sequence (P48736 whole entry): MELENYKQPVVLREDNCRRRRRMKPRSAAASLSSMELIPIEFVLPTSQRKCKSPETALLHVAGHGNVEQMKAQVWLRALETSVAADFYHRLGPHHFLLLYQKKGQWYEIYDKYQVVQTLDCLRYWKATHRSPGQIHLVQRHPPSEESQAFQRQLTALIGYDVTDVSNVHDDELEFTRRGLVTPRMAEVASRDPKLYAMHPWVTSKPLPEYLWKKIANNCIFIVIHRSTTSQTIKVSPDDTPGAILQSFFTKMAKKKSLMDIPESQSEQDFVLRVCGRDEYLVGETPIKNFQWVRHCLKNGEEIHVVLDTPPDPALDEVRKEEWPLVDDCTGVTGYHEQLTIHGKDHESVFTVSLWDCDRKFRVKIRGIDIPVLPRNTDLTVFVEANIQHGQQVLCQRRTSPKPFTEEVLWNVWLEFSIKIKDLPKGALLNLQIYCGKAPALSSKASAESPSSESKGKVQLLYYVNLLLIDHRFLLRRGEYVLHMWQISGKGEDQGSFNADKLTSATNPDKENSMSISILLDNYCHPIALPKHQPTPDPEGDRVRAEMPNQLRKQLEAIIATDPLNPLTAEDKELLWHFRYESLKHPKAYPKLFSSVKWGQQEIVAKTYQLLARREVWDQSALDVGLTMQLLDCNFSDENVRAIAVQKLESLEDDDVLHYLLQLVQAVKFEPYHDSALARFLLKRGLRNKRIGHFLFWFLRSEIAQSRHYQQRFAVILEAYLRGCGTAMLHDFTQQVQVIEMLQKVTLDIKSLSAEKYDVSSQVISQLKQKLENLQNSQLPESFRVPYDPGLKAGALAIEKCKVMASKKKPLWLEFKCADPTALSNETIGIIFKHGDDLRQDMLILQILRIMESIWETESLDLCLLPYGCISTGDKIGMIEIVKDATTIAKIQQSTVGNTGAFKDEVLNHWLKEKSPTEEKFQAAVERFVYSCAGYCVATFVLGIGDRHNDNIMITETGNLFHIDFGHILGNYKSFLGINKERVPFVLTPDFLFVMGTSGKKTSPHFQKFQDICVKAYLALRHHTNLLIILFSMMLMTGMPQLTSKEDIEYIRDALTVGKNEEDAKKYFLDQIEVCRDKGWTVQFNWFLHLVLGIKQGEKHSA
experiment: PI 3-Kinase (human) HTRF assay, p110γ
Type: biochemical
setup conditions: in vitro; read-out: PI3K γ IC50
pIC50: −log10 of the molar value.
measure name: pIC50

{"compound": "Nc1nc2cc(-c3ccc4ncc(NCCCN5CCCC5)nc4c3)ccc2o1 [compound 221]", "pIC50": "> 7.00"}
{"compound": "CC(C)Oc1nc(-c2ccc3oc(N)nc3c2)cnc1N [compound 237]", "pIC50": "> 5.00"}
{"compound": "Nc1nc2cc(-c3ccn4ncc(-c5ccncc5)c4c3)ccc2o1 [compound 356]", "pIC50": "> 7.00"}

Exercise: Quick check: pIC50 of Cc1ccn(C2CN(c3cnc4ccc(-c5ccc6oc(N)nc6c5)cc4n3)C2)n1 [compound 320] ?
Key: > 5.00

Exercise: Any idea what its pIC50 is? The compound is Nc1nc2cc(-c3ccc4ncc(C(=O)N5CC(O)C5)n4c3)ccc2o1 [compound 200]
Key: > 7.00

Exercise: I am curious: what pIC50 value has been reported for Nc1nc2cc(-c3ccc4ncc(N5CC(N6CCOCC6)C5)nc4c3)cc(F)c2o1 [compound 361] ?
Key: > 6.00

Exercise: Param item = Nc1nc2cc(-c3ccc4ncc(N5CC(N6CCNCC6)C5)nc4c3)ccc2o1 [compound 326] ; retrieve measured pIC50.
Key: > 6.00

Exercise: # query: pIC50 of entry Nc1nc2cc(-c3ccc4ncc(N5CCn6cccc6C5)nc4c3)ccc2o1 [compound 394]
Key: > 7.00

Exercise: Which pIC50 is reported for this compound? Nc1cn2cc(-c3ccc4oc(N)nc4c3)ccc2n1 [compound 245]
Key: > 6.00

Exercise: So what's the measured pIC50 for this one? Nc1nc2cc(-c3ccc4ncc(NCCCN5CCOCC5)nc4c3)ccc2o1 [compound 222]
Key: > 6.00

Exercise: Name the recorded pIC50 for Nc1nc2cc(-c3ccn4ncc(C(=O)N5CCCC5)c4c3)ccc2o1 [compound 346] .
Key: > 6.00

----------
IC50 values for the compounds below.
measured on: p110β/p85α (Homo sapiens (Human), UniProt P42338)
Sequence (P42338 whole entry): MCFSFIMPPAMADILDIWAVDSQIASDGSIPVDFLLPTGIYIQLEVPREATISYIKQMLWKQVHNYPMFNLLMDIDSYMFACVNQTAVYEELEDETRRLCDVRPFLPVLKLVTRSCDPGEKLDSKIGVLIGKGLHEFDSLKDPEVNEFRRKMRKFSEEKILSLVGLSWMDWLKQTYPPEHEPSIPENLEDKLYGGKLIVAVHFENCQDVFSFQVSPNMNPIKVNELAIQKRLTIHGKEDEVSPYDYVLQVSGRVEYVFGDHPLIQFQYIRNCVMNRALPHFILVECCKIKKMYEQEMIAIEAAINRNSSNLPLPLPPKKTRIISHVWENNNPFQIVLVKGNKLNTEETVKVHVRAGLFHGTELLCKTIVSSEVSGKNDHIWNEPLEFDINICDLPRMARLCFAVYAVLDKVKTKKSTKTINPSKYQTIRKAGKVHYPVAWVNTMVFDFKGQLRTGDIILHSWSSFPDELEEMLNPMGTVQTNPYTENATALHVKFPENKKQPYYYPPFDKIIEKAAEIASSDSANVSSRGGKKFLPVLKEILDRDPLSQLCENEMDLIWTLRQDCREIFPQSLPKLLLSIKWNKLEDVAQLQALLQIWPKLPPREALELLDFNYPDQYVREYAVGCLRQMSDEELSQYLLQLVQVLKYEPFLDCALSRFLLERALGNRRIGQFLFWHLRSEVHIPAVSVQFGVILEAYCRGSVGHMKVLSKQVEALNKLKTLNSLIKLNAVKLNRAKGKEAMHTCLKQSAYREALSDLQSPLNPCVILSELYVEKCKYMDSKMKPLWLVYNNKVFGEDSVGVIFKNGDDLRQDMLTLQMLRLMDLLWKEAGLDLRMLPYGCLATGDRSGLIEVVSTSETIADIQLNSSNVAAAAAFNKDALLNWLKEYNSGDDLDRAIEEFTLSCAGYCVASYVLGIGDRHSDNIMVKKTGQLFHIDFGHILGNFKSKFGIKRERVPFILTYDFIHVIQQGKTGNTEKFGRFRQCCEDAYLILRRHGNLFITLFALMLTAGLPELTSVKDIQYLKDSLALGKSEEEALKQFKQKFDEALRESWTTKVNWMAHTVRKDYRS
Sequence (P27986 whole entry partner): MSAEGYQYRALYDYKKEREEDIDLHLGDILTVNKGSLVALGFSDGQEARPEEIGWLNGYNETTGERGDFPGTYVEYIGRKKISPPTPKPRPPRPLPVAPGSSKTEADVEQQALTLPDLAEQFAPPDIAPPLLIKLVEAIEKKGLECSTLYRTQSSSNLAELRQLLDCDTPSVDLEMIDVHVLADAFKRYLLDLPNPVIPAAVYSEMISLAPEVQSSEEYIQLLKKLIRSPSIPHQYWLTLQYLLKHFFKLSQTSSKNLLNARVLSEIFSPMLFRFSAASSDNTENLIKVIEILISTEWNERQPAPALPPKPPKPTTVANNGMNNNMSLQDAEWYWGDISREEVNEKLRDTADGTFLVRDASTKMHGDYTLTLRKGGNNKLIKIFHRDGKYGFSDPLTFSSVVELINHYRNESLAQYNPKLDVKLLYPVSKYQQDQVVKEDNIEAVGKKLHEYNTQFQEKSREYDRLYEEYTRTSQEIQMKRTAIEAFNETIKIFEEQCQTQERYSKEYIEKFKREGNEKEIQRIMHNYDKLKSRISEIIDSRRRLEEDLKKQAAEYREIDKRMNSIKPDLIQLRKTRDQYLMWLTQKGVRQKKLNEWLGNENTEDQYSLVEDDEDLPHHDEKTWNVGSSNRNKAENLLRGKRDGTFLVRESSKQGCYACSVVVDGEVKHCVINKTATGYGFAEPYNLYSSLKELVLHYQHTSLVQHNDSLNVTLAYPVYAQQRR
experiment: PI 3-Kinase (human) HTRF assay, p110β/p85α
Type: biochemical
setup conditions: read-out: PI3K β In Vitro IC50

Examples with answers:
{"compound": "O=C(c1cnc2ccc(-c3cnc(Cl)c(NS(=O)(=O)c4ccc(F)cc4)c3)cn12)N1CCOCC1 [compound 457]", "IC50": "< 0.1 µM"}
{"compound": "CNc1nc2cc(-c3ccc4ncc(C(=O)N5CCOCC5)n4c3)ccc2o1 [compound 406]", "IC50": "< 10 µM"}
{"compound": "COc1ncc(-c2ccc3ncc(C(=O)N4CCOCC4)n3c2)cc1NS(=O)(=O)c1ccccc1F [compound 422]", "IC50": "< 10 µM"}
{"compound": "O=C(c1cnc2ccc(-c3cnc(Cl)c(NS(=O)(=O)c4ccc(F)cc4F)c3)cn12)N1CCOCC1 [compound 419]", "IC50": "< 0.1 µM"}
{"compound": "O=C(c1cnc2ccc(-c3ccc(Cl)c(NS(=O)(=O)c4ccc(F)cc4F)c3)cn12)N1CCOCC1 [compound 461]", "IC50": "< 10 µM"}
{"compound": "COC1CN(C(=O)c2cnc3ccc(-c4ccc5oc(N)nc5c4)cn23)C1 [compound 467]", "IC50": "< 10 µM"}
{"compound": "O=C(c1cnc2ccc(-c3cnc(Cl)c(NS(=O)(=O)c4ccccc4)c3)cn12)N1CCOCC1 [compound 451]", "IC50": "< 1 µM"}

Switching to the query record.
Exercise: Consider the compound C[C@H]1CN(C2CN(C(=O)c3cnc4ccc(-c5ccc6oc(N)nc6c5)cn34)C2)CCN1C [compound 512] and give its measured IC50.
Key: < 10 µM
